Test system: MLK2;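 also: KINOMEscan scanMAX binding as percent activity remaining versus control; lower means stronger binding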
Construct: gene MAP3K10
Conditions: Compound Concentration (nM):1000
Readout name: Percent Control
Write the quantity with the unit trailing the number.

Indicate its recorded Percent Control; the compound in question is Cl.O=C(O[C@H]1CN[C@H](C#Cc2cc3ncnc(Nc4ccc5c(cnn5Cc5ccccc5)c4)c3s2)C1)N1CCOCC1 [GSK200398A] 100%

For the compound C/C(Nc1ccc(S(N)(=O)=O)cc1)=C1/C(=O)Nc2ccccc21 [GW335962X] , give its measured Percent Control value. 75%

Output Percent Control of COC(=O)Nc1nc2ccc(Oc3ccc(NC(=O)Nc4cc(C(F)(F)F)ccc4F)cc3)cc2s1.Cl [GW693917A] 85%

Hello, please tell me recorded Percent Control for this one: CC(C)COC(=O)c1ccc2c(c1)/C(=C/Nc1ccc(S(N)(=O)=O)cc1)C(=O)N2 [GW416981X] 96%

Kindly indicate its recorded Percent Control. Item: NS(=O)(=O)c1ccc(N/N=C2\C(=O)Nc3ccc(C(=O)NCc4ccncc4)cc32)cc1 [GW300657X] 99%

Indicate its recorded Percent Control; the compound in question is CN1CCN(C(=O)c2ccc(NC(=O)Nc3ccc(N(C)c4ccnc(Nc5ccc(CS(C)(=O)=O)cc5)n4)cc3)cc2)CC1.Cl [GW830263A] 82%

Return Percent Control for the following compound: `CCc1ccc(Oc2nccc(-c3c(-c4ccc(F)cc4)ncn3C3CCNCC3)n2)cc1` 100%

Fill in reported Percent Control for this entry: COc1cc2ncn(-c3cc(O[C@H](C)c4ccccc4Cl)c(C(N)=O)s3)c2cc1OC [GSK237701A] 95%

Origin of values: paper PMC7826789
